Test system: activated human T cells (proliferation)
EXPERIMENTAL_DETAILS: cells
Format: cell-based
CONDITIONS: Homo sapiens, T-cell, read-out: EC50, rescue of T cell proliferation
MEASUREMENT_LABEL: pEC50
# pEC50: negative log10 of molar concentration; output just the value

For O=c1ccn([C@@H]2O[C@H](CO)[C@@H](O)[C@H]2O)c(=O)[nH]1 , what is its reported pEC50?
5.96

The origin of these recorded values is paper PMC12133574.
